biological target: Integrin alpha-IIb/beta-3 (Homo sapiens, UniProt P05106+P08514); experiment: Antagonist activity at alpha2bbeta3 integrin receptor
Sequence (P05106 27-788 limits assumed): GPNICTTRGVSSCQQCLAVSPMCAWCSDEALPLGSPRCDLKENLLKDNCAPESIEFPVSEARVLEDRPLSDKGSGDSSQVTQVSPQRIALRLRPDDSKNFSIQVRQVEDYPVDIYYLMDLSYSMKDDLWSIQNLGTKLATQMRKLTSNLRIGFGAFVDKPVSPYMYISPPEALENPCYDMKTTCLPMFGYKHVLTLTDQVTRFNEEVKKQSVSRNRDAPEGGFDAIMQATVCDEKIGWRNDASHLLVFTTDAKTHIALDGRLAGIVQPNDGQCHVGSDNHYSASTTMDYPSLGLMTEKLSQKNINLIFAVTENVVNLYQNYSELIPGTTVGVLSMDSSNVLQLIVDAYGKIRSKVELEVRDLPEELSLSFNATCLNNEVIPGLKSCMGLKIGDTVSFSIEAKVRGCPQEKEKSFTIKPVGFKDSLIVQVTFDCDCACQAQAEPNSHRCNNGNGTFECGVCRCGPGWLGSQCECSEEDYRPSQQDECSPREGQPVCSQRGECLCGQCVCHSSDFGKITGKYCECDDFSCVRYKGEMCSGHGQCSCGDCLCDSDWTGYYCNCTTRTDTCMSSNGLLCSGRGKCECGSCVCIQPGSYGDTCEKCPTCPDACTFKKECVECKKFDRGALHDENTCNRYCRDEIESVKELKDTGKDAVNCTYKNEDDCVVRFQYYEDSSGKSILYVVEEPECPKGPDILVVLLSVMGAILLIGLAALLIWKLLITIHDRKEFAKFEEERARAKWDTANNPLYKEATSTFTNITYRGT
Sequence (P08514 32-887 limits assumed): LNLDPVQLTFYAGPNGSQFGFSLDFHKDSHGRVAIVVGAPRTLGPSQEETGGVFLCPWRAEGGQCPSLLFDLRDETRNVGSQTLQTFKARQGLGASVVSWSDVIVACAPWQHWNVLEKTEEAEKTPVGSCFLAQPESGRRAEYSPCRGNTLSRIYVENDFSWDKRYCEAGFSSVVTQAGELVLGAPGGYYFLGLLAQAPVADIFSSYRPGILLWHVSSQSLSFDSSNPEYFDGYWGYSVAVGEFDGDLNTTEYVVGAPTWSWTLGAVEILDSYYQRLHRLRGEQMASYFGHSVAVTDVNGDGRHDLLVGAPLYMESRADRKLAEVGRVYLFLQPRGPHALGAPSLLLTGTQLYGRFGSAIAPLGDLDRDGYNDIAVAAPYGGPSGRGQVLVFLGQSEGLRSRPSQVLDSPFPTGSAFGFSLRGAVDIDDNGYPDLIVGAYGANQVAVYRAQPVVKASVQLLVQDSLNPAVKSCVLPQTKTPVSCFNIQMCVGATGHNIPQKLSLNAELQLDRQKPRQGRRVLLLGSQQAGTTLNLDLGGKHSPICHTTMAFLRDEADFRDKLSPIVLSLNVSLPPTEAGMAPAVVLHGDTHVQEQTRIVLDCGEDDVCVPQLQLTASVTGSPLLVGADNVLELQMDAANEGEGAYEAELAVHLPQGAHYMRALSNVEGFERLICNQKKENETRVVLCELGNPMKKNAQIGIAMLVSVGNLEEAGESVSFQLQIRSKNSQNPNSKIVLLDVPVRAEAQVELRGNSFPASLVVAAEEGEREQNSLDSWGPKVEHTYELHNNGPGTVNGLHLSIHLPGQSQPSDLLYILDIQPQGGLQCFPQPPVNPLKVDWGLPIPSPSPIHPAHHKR
Sequence (P08514 891-1039 limits assumed): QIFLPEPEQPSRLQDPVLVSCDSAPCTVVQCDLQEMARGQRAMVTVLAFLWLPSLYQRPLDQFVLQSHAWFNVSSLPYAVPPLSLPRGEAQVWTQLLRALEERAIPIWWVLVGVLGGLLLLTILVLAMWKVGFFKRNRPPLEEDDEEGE
pIC50: −log10 of the molar value.
property-measured: pIC50

>>> experimental_result("O=C(NC[C@H](NS(=O)(=O)c1ccc(O)cc1)C(=O)O)c1ccc(N2CCC(NC3=NCCCN3)CC2)c(O)c1")
9.03
>>> experimental_result("O=C(NC[C@H](NS(=O)(=O)c1ccccc1)C(=O)O)c1ccc(N2CCC[C@H](NC3=NCCCN3)C2)cc1F")
9.11
>>> experimental_result("O=C(NC[C@H](NS(=O)(=O)c1ccccc1)C(=O)O)c1ccc(N2CCC(NC3=NCCCN3)CC2)c(O)c1")
9.01

a = O=C(O)c1ccc(S(=O)(=O)N[C@@H](CNC(=O)c2ccc(N3CCC(NC4=NCCCN4)CC3)c(F)c2)C(=O)O)cc1
b = O=C(NC[C@H](NS(=O)(=O)c1ccccc1)C(=O)O)c1ccc(N2CCC[C@H](N=C3NCCCN3)C2)cc1
Given the listed records, identify the one among a and b with higher pIC50. When you have decided, please share the label of that item.
b
(b: 9.25, a: 8.92)
